Where do the numbers come from? From patent US20260000697A1.

- TEST_SUMMARY: clinical
- STUDY_CONDITIONS: human, blood, subcutaneous, 60 mg
READOUT: Tmax (min)
Enter your answer as a number in min; do not include the unit.

[ask] Which Tmax value is on record for Nc1ncn([C@@H]2O[C@H](CO)[C@@H](O)[C@H]2O)c(=O)n1 [Group 1 (azacitidine, SQ), azacitidine] ?
[reply] 36

---

- TEST_SUMMARY: clinical
- STUDY_CONDITIONS: human, blood, subcutaneous, 60 mg
- Procedure: Blood samples were collected pre-dose, and 0.5, 1, 1.5, 2, 2.5, 3, 3.5, 4, 5, 7, 9 and 24 hours after dosing.
READOUT: AUC(0-t)
Give your result as the value with the unit written after it.

[ask] What does the data say about its AUC(0-t)? Entry: Nc1ncn([C@@H]2O[C@H](CO)[C@@H](O)[C@H]2O)c(=O)n1
[reply] 761 ng·h/mL
